- TESTED_TARGET: T1, human LRRC15 extracellular domain with C-terminal His tag (human, UniProt Q8TF66 22-538)
- T1 construct: Recombinant, made in HEK293; the entry holds the extracellular domain and the His tag; SPR analyte; also called TPP-1545; hLRRC15 CT-His
- T1 sequence: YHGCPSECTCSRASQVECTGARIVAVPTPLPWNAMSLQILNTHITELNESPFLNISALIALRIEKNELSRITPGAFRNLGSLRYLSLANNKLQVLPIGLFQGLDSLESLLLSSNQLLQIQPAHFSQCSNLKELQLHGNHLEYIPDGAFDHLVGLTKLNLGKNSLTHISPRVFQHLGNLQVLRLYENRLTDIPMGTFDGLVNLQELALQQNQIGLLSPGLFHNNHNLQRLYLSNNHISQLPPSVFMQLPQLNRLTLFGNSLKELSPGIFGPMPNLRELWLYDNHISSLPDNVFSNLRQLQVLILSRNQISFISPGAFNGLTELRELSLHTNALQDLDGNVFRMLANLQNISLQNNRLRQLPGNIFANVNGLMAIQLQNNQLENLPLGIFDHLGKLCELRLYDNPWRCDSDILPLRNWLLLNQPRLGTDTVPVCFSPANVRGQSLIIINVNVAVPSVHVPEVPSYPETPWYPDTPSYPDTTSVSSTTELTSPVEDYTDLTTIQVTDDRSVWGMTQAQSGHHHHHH
- RUN_DESCRIPTION: SPR thermodynamics (van't Hoff/Eyring), 10-37°C
- Description: Thermodynamics help to explain why an interaction is happening and what the driving forces for the interaction are. To assess the thermodynamic parameters for anti-LRRC15 antibodies binding assays were conducted using surface plasmon resonance (SPR). […] Van′t Hoff and Eyring plots were calculated and plotted and thermodynamic parameters were derived.
MEASURED_PROPERTY: -TΔS (kcal/mol)

BINDER	READOUT_UNIT	TEST_RESULT
TPP-17421 (antibody, human IgG1, kappa, V domains shown, also called 438H-M306-C11-hIgG1Kappa) VH: EVQLVQSGAEVKKPGASVKVSCKASGYKFSSYWIEWVKQAPGQGLEWIGEILPGSDWTNYNEKFKDRATFTSDTSINTAYMELSRLRSDDTAVYYCARDRGNYRAWFQYWGQGTLVTVSS VL: DIQMTQSPSSLSASVGDRVTITCRASQSISSYLNWYQQKPGGAPKFLIYYASSLQSGVPSRFSGSGSGTDYTLTISSLQPEDFATYYCQQGLELPWTFGGGTKVEIKR	kcal/mol	-1.82
TPP-14392 (antibody, human IgG1, kappa, V domains shown, also called 13612-rec05-hIgG1Kappa) VH: EVQLLESGGGLVQPGGSLRLSCAASGFTFSGYMMSWVRQAPGKGLEWVSGIYPSPGYTYYADSVKGRFTISRDNSKNTLYLQMNSLRAEDTAVYYCAREKASDLSGSYSEALDYWGQGTLVTVSS VL: DIQMTQSPDSLSASVGDRVTITCRASQDVGSWLAWYQQKPGKAPKLLIFAASYLESGIPSRFSGSGSGTDFTLTISSLQPEDFATYYCQQANGFPLTFGGGTKVEIKR	kcal/mol	15.3
TPP-17074 (antibody, human IgG1, kappa, V domains shown, also called 438H-M161-K22-hIgG1) VH: EVQLLESGGGLVQPGGSLRLSCAASGFTFSGYMMSWVRQAPGKGLEWVSGIYPSGGYALYADSVKGRFTISRDNSKNTLYLQMNSLRAEDTAVYYCAREKAADLFGSYSEALDYWGQGTLVTVSS VL: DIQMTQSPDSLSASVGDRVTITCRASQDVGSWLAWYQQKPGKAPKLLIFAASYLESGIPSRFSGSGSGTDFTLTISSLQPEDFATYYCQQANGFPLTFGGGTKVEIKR	kcal/mol	9.56
